For each of the compounds below, state its Inhibition.
System: Plasmodium falciparum
Experiment: GSK_TCMDC: Inhibition of Plasmodium falciparum Dd2 in whole red blood cells, using parasite LDH activity as an index of growth. Test compounds present at 2uM
Format: functional
Answer with a number only, understood to be in %.

Lab book: Inhibition of "COc1ccc(-c2nc(NCc3ccccc3)c3cc(OC)c(OC)cc3n2)cc1" noted as 100

Memo: "Cl.Fc1cc(Cl)ccc1Nc1ccnc(Nc2ccc3cn[nH]c3c2)n1" , reported Inhibition: 56

Per the records, this compound ( "CCOc1ccc(OCC)c(N2CCN(CCCCNC(=O)c3ccc(NC(=O)c4ccc(Cl)cc4)cc3)CC2)c1" ) has Inhibition equal to 40

Lab book: Inhibition of "COc1ccccc1-c1cccc(-c2cccc(NC(=O)c3ccc([N+](=O)[O-])o3)c2)n1" noted as 59

Memo: "O=C(O)C(F)(F)F.O=S(=O)(NCCN1CCCC1)c1ccc(-c2ccc(CNCc3ccccc3)cc2)s1" , reported Inhibition: 17

In plain terms, "Fc1ccc2[nH]c(-c3cccc(-c4cccc(CNCCN5CCNCC5)c4)c3)nc2c1.O=C(O)C(F)(F)F" has a documented Inhibition of 4

Value of Inhibition reported for the compound "Nc1nc(N)c2c(ccc3c2ccn3Cc2ccc(Cl)cc2)n1" is 99

The compound "COc1ccc(CNC(=O)Nc2cc3cc(-c4ccc(CN5CCCC5)cc4)ccc3n3c(C)nnc23)cc1" showed Inhibition equal to 100

Lookup result for CC1CNC(c2ccc(NC(=O)c3ccc(C(=O)Nc4ccc(C5=NC(C)CN5)cc4)cc3)cc2)=N1.CS(=O)(=O)O (stereo not drawn) ; measured Inhibition: 100

Inhibition measured on "O=C(/C=C/c1ccc(Cl)c(Cl)c1)NCCCCCN1CCC(NC(=O)NCCc2ccccc2)CC1" = 7

The measured Inhibition associated with "N#Cc1cccc(C(=O)Nc2cccc(-c3ccc(C(=O)Nc4cccnc4)cc3)c2)c1" reads 10

get_value(item= "Cc1nn(C)c(C)c1CN(Cc1nc(-c2cccc(Oc3ccccc3)c2)oc1C)C1CC1" , readout=Inhibition) returns 98

Lab book: Inhibition of "CCCc1nc2c(N3CCCN(C(=O)NC4CCCCC4)CC3)cccc2n1Cc1ccccn1" noted as 10

# Inhibition of "CCN(CC)/C(=N/C(=N)NCc1ccc(Cl)cc1Cl)NCCCCCCN/C(=N\C(=N)NCc1ccc(Cl)cc1Cl)N(CC)CC" = 99

Just so you know, measured Inhibition for "Fc1ccc(CNc2nc(-c3ccc(F)c(C(F)(F)F)c3)n(-c3cccc(C(F)(F)F)c3)n2)cc1" came out at 80

# Inhibition of "NC(=O)c1cccc(CNC(=O)NC[C@H]2CN(Cc3ccc(Cl)c(Cl)c3)CCO2)c1" = 65

In plain terms, "CC(C)(C)c1ccc(NC(=O)c2ccc(CN3CCCN(CC4CCCCC4)CC3)cc2)cc1.O=C(O)C(F)(F)F" has a documented Inhibition of 64

Value of Inhibition reported for the compound "Cc1cc(-c2cnc(N)c(-c3ccc(N4CCN(C)CC4)cc3)c2)cc(C)c1O" is 99

* * *

Test system: Plasmodium falciparum
Test: GSK_TCMDC: Inhibition of Plasmodium falciparum 3D7 in whole red blood cells, using parasite LDH activity as an index of growth. Test compounds present at 2uM
Format: functional
Property measured: Inhibition (%)
Number only, in %; omit the unit.

Value of Inhibition reported for the compound "O=C(Nc1ccc(Cl)c(Cl)c1)Nc1cc(C(F)(F)F)ccc1Cl" is 100

The value of Inhibition measured for the compound "CN(c1ccccc1C(=O)Nc1ccccc1Oc1ccccc1)S(=O)(=O)c1ccccc1" turned out to be 90

Notebook: "COc1cc2nc(N3CCC(CNC(=O)/C=C/c4cccc(C)c4)CC3)nc(N)c2cc1OC" , Inhibition read as 100

Value of Inhibition reported for the compound NC1CCCN(Cc2cccc(-c3ccc(-c4nc5ccccc5[nH]4)cc3)c2)C1.O=C(O)C(F)(F)F (centres undefined) is 100

Input CCCCOP(=O)(COc1ccc(CCN(CC(O)COc2cccc3[nH]c4ccccc4c23)CC(O)COc2cccc3[nH]c4ccccc4c23)cc1)C1CCCCC1 (centres undefined) . Output Inhibition: 89

GET /value?item= "COc1cc(-c2nnc(SCC(=O)Nc3cc(C)on3)n2C)cc(OC)c1O" &field=Inhibition returns 89

Record "Cl.c1ccc2ncc(CNCCCCCCCCNCc3cnc4ccccc4c3)cc2c1" , field Inhibition: 88

"CC(C)(C)OC(=O)NCc1ccc(Nc2nnc(-c3cccc(OCC(=O)NCc4cc(C(F)(F)F)cc(C(F)(F)F)c4)c3)o2)cc1" has a reported Inhibition of 90

// Inhibition lookup, compound = "Cc1[nH]c(C)c(-c2ccc(Oc3ccc(Cl)cc3)cc2)c(=O)c1Cl" , result: 91
